# System: EMC-BAC-2
# method: relative viability (nuclei count vs DMSO), 5 days (fraction); higher = more cells survive
# assay.setup: first compound 0.08 µM
Documented relative viability across a set of compounds
result.type: relative viability

>>> observed_value("C=C1C(=O)O[C@@H](CCCCCCCC)[C@@H]1C(=O)O [C-75] + C[C@]1(O)C[C@@H](c2nc(-c3ccc4ccc(-c5ccccc5)nc4c3)c3c(N)nccn32)C1 [Linsitinib] (partner 1 µM)")
0.791
>>> observed_value("Oc1nc(-c2ccc(C(F)(F)F)cc2)nc2c1CSCC2 [XAV939] + COc1cc2c(Oc3ccc(NC(=O)C4(C(=O)Nc5ccc(F)cc5)CC4)cc3F)ccnc2cc1OCCCN1CCOCC1 [Foretinib] (partner 0.25 µM)")
1.05
>>> observed_value("Oc1nc(-c2ccc(C(F)(F)F)cc2)nc2c1CSCC2 [XAV939] + C[C@@H](Oc1cc(-c2cnn(C3CCNCC3)c2)cnc1N)c1c(Cl)ccc(F)c1Cl [Crizotinib] (partner 1 µM)")
0.821
>>> observed_value("Oc1nc(-c2ccc(C(F)(F)F)cc2)nc2c1CSCC2 [XAV939] + NC(=O)Nc1cc(-c2cccc(F)c2)sc1C(=O)N[C@H]1CCCNC1 [AZD7762] (partner 0.2 µM)")
1.1

###

Documented relative viability across a set of molecules
# Test system: LCLC-103H
# method: relative viability (nuclei count vs DMSO), 5 days (fraction); higher = more cells survive
# assay.setup: first compound 0.253 µM
result.type: relative viability

>>> observed_value("Oc1nc(-c2ccc(C(F)(F)F)cc2)nc2c1CSCC2 [XAV939] + O=C(c1cc(Cc2n[nH]c(=O)c3ccccc23)ccc1F)N1CCN(C(=O)C2CC2)CC1 [Olaparib] (partner 8 µM)")
0.691
>>> observed_value("Oc1nc(-c2ccc(C(F)(F)F)cc2)nc2c1CSCC2 [XAV939] + C[C@]1(O)C[C@@H](c2nc(-c3ccc4ccc(-c5ccccc5)nc4c3)c3c(N)nccn32)C1 [Linsitinib] (partner 1 µM)")
0.943
>>> observed_value("Oc1nc(-c2ccc(C(F)(F)F)cc2)nc2c1CSCC2 [XAV939] + O=C(CCCCCCC(=O)Nc1ccccc1)NO [Vorinostat] (partner 1 µM)")
0.698
>>> observed_value("C=C1C(=O)O[C@@H](CCCCCCCC)[C@@H]1C(=O)O [C-75] + O=C(c1cc(Cc2n[nH]c(=O)c3ccccc23)ccc1F)N1CCN(C(=O)C2CC2)CC1 [Olaparib] (partner 8 µM)")
0.719
>>> observed_value("C=C1C(=O)O[C@@H](CCCCCCCC)[C@@H]1C(=O)O [C-75] + CC(=O)c1c(C)c2cnc(Nc3ccc(N4CCNCC4)cn3)nc2n(C2CCCC2)c1=O [Palbociclib] (partner 0.5 µM)")
0.428

###

# Test system: HARA
# method: relative viability (nuclei count vs DMSO), 5 days (fraction); higher = more cells survive
# assay.setup: first compound 0.8 µM
result.type: relative viability

>>> observed_value("C=C1C(=O)O[C@@H](CCCCCCCC)[C@@H]1C(=O)O [C-75] + C[C@@H](Oc1cc(-c2cnn(C3CCNCC3)c2)cnc1N)c1c(Cl)ccc(F)c1Cl [Crizotinib] (partner 1 µM)")
0.944
>>> observed_value("C=C1C(=O)O[C@@H](CCCCCCCC)[C@@H]1C(=O)O [C-75] + O=C(CCCCCCC(=O)Nc1ccccc1)NO [Vorinostat] (partner 1 µM)")
0.415
>>> observed_value("Oc1nc(-c2ccc(C(F)(F)F)cc2)nc2c1CSCC2 [XAV939] + CC(=O)Nc1cccc(-n2c(=O)n(C3CC3)c(=O)c3c(Nc4ccc(I)cc4F)n(C)c(=O)c(C)c32)c1 [Trametinib] (partner 0.02 µM)")
0.892
>>> observed_value("Oc1nc(-c2ccc(C(F)(F)F)cc2)nc2c1CSCC2 [XAV939] + CCNC(=O)c1noc(-c2cc(C(C)C)c(O)cc2O)c1-c1ccc(CN2CCOCC2)cc1 [Luminespib] (partner 0.01 µM)")
0.865
>>> observed_value("C=C1C(=O)O[C@@H](CCCCCCCC)[C@@H]1C(=O)O [C-75] + O=C(c1cc(Cc2n[nH]c(=O)c3ccccc23)ccc1F)N1CCN(C(=O)C2CC2)CC1 [Olaparib] (partner 8 µM)")
1.04
>>> observed_value("Oc1nc(-c2ccc(C(F)(F)F)cc2)nc2c1CSCC2 [XAV939] + O=C(CCCCCCC(=O)Nc1ccccc1)NO [Vorinostat] (partner 1 µM)")
0.648
>>> observed_value("C=C1C(=O)O[C@@H](CCCCCCCC)[C@@H]1C(=O)O [C-75] + CS(=O)(=O)N1CCN(Cc2cc3nc(-c4cccc5[nH]ncc45)nc(N4CCOCC4)c3s2)CC1 [Pictilisib] (partner 1 µM)")
0.375
>>> observed_value("C=C1C(=O)O[C@@H](CCCCCCCC)[C@@H]1C(=O)O [C-75] + Nc1ncn([C@H]2C[C@H](O)[C@@H](CO)O2)c(=O)n1 [Decitabine] (partner 2 µM)")
0.565
>>> observed_value("C=C1C(=O)O[C@@H](CCCCCCCC)[C@@H]1C(=O)O [C-75] + CS(=O)(=O)CCNCc1ccc(-c2ccc3ncnc(Nc4ccc(OCc5cccc(F)c5)c(Cl)c4)c3c2)o1 [Lapatinib] (partner 2 µM)")
0.646
